We begin with a simple list: items and their reported TGI.
system: MDA-MB-231 breast; assay: NCI tumour cell line growth inhibition, 48 h
Just the number please, in µM, no unit attached.

Answered examples (4):
[
  {
    "molecule": "C/C(=N/O)c1ccc2c(c1)/C(=N/O)c1ccccc1-2",
    "displayUnit": "µM",
    "TGI": 56.5
  },
  {
    "molecule": "CC[C@]1(O)CC2CN(CCc3c([nH]c4ccccc34)[C@@](C(=O)OC)(c3cc4c(cc3OC)N(C=O)[C@H]3[C@@](O)(C(=O)OC)[C@H](OC(C)=O)[C@]5(CC)C=CCN6CC[C@]43[C@@H]65)C2)C1 (stereo partly specified)",
    "displayUnit": "µM",
    "TGI": 2.73
  },
  {
    "molecule": "COc1cc(/C=C/C(=O)N2CCC=CC2=O)cc(OC)c1OC",
    "displayUnit": "µM",
    "TGI": 10.8
  },
  {
    "molecule": "COc1cc(/C=C/C(=O)/C=C/c2cc3ccc(Cl)cc3n(Cc3ccccc3)c2=O)ccc1O",
    "displayUnit": "µM",
    "TGI": 16.6
  }
]

Let's switch to this molecule now.
In: Provide the documented TGI with MDA-MB-231 breast as the system for Cc1ccc(OCC2=NC3S/C(=C/c4ccc([N+](=O)[O-])o4)C(=O)N3N2)cc1 (stereo unspecified)
Out: 26.6

----------
tested on: HS 578T breast; experiment: NCI tumour cell line growth inhibition, 48 h
We begin with a simple list: items and their reported TGI.
Just the number please, in µM, no unit attached.

Answered examples (4):
[
  {
    "compound": "CCCC(C)NC(=O)c1ccc(N(C)Cc2cnc3nc(N)nc(N)c3n2)cc1 (stereo unspecified)",
    "measurementLabel": "TGI",
    "value": 44.2
  },
  {
    "compound": "CCN(CC)c1ccc2nc3c4ccccc4c(=O)cc-3n(-c3ccccc3)c2c1",
    "measurementLabel": "TGI",
    "value": 7.24
  },
  {
    "compound": "N#Cc1ccccc1C#C/C=C\\C#CC#C/C=C\\C#Cc1ccccc1C#N",
    "measurementLabel": "TGI",
    "value": 78.8
  },
  {
    "compound": "COc1ccc(C(=O)O[C@H]2[C@H](O[C@H]3[C@@H](O)COC(O[C@H]4C[C@H]5[C@@H]6CC=C7C[C@@H](O)CC[C@]7(C)[C@H]6CC[C@]5(C)[C@H]4[C@H](C)C(=O)CCC(C)C)[C@@H]3OC(C)=O)OC[C@@H](O)[C@@H]2O)c(C)c1 (stereo partly specified)",
    "measurementLabel": "TGI",
    "value": 0.0282
  }
]

Let's switch to this compound now.
In: Can you look up the measured TGI of CCOC(=O)c1c(-c2cccc(Cl)c2)c(C(=O)OC)c(C)c2sc(C=O)nc12 for me?
Out: 50.5

----------
system: NCI-H226 lung; assay: NCI tumour cell line growth inhibition, 48 h
We begin with a simple list: items and their reported TGI.

Answered examples (5):
[
  {
    "compound": "COc1ccc(S(=O)(=O)N[C@H](C(=O)O)c2ccccc2)cc1",
    "value": "> 100 µM"
  },
  {
    "compound": "O=C(CO[N+](=O)[O-])OC/C=C/c1ccccc1",
    "value": "> 100 µM"
  },
  {
    "compound": "COc1cccc(/C=C/c2ccnc3ccccc23)c1OC",
    "value": "> 10 µM"
  },
  {
    "compound": "CCCC(C)NC(=O)c1ccc(N(C)Cc2cnc3nc(N)nc(N)c3n2)cc1 (stereo unspecified)",
    "value": "47.6 µM"
  },
  {
    "compound": "CCOC(=O)C(NO)C(Sc1ccccc1)c1ccc(OC)cc1 (stereo unspecified)",
    "value": "> 100 µM"
  }
]

In: Provide the documented TGI with NCI-H226 lung as the system for COc1ccc(NC(=O)CC(=O)NNC(Sc2ccccc2)c2cc(N=Nc3ccc(Br)cc3)ccc2O)cc1 (stereo unspecified)
Out: > 10 µM

In: Provide the documented TGI with NCI-H226 lung as the system for CCOC(=O)/C(C#N)=C1\SS/C(=C(/C#N)C(=O)OCC)S1
Out: 38.6 µM

In: Provide the documented TGI with NCI-H226 lung as the system for O=C(Cn1c(=O)oc2ccc(C(=O)c3ccc(F)cc3)cc21)c1ccccc1
Out: > 100 µM

In: Provide the documented TGI with NCI-H226 lung as the system for N/C(=N\N=C\c1cc(I)cc(I)c1O)NO
Out: 44.5 µM

In: Provide the documented TGI with NCI-H226 lung as the system for CCN(CC)CCCNc1ccc([N+](=O)[O-])c2nc3ccc(OC)cc3c(N)c12
Out: > 10 µM

In: Provide the documented TGI with NCI-H226 lung as the system for CCN(CC)CC(=O)NC1c2ccccc2Oc2c(C)cccc21 (stereo unspecified)
Out: > 100 µM

----------
We begin with a simple list: items and their reported TGI.
tested on: SN12C renal; experiment: NCI tumour cell line growth inhibition, 48 h

[
  {
    "compound": "CCN(CC)c1ccc2nc3c4ccccc4c(=O)cc-3n(-c3ccccc3)c2c1",
    "value": "40.2 µM"
  },
  {
    "compound": "O/C(=C\\c1nc2ccccc2nc1/C=C(\\O)c1ccc(F)cc1)c1ccc(F)cc1",
    "value": "> 100 µM"
  }
]

Let's switch to this compound now.
In: Can you look up the measured TGI of COc1ccccc1-n1c(N)c2c(C)c(-c3ccccc3)[nH]c2nc1=S for me?
Out: > 100 µM

----------
system: MDA-MB-231 breast; assay: NCI tumour cell line growth inhibition, 48 h
Parameter threshold = 20 µM. Response is yes (1) when TGI meets or exceeds it, else no (0).

Field: example entries. Status: answers known.
[
  {
    "molecule": "COc1ccc(C(=O)O[C@H]2[C@H](O[C@H]3[C@@H](O)COC(O[C@H]4C[C@H]5[C@@H]6CC=C7C[C@@H](O)CC[C@]7(C)[C@H]6CC[C@]5(C)[C@H]4[C@H](C)C(=O)CCC(C)C)[C@@H]3OC(C)=O)OC[C@@H](O)[C@@H]2O)c(C)c1 (some centres undefined)",
    "targetUnderTest": "MDA-MB-231 breast",
    "classLabel": "no (0)"
  },
  {
    "molecule": "N#Cc1ccccc1C#C/C=C\\C#Cc1ccccc1N",
    "targetUnderTest": "MDA-MB-231 breast",
    "classLabel": "no (0)"
  },
  {
    "molecule": "CC(C)CC(NP(=O)(O)OC1OC(C)C(O)C(O)C1O)C(=O)NC(Cc1c[nH]c2ccccc12)C(=O)O (centres undefined)",
    "targetUnderTest": "MDA-MB-231 breast",
    "classLabel": "yes (1)"
  },
  {
    "molecule": "CCOC(=O)c1c(NC(=O)c2ccccc2)sc2c3c(ccc12)OCN(C)C3",
    "targetUnderTest": "MDA-MB-231 breast",
    "classLabel": "no (0)"
  },
  {
    "molecule": "CCOC(=O)c1c(-c2cccc(Cl)c2)c(C(=O)OC)c(C)c2sc(C=O)nc12",
    "targetUnderTest": "MDA-MB-231 breast",
    "classLabel": "yes (1)"
  },
  {
    "molecule": "Cc1n[n+]([O-])c(C)cc1[N+](=O)[O-]",
    "targetUnderTest": "MDA-MB-231 breast",
    "classLabel": "yes (1)"
  },
  {
    "molecule": "Cc1ccc(-c2nc3cc(Cl)c(Cl)cc3nc2C#N)cc1",
    "targetUnderTest": "MDA-MB-231 breast",
    "classLabel": "yes (1)"
  }
]

Turning now to a further molecule:
In: Is TGI for CSC1=C(C(=O)Nc2ccc(C)cc2)C(N)=NC1=O at or above 20 µM?
Out: yes (1)

----------
tested on: HCT-116 colon; test: NCI tumour cell line growth inhibition, 48 h
measurementLabel: TGI

In: Can you look up the measured TGI of Cc1ccc(OCC2=NC3S/C(=C/c4ccc([N+](=O)[O-])o4)C(=O)N3N2)cc1 (stereo not given) for me?
Out: 15.9 µM

In: Can you look up the measured TGI of COc1cccc(/C=N/[N-]C(N)=O)c1[O-].[Ni+2].[OH3+] for me?
Out: 0.27 µM

In: Can you look up the measured TGI of O=C(COc1ccc(OCC(=O)N2C(=O)CN(c3ccccc3)C2=S)cc1)N1C(=O)CN(c2ccccc2)C1=S for me?
Out: > 100 µM

In: Can you look up the measured TGI of CCN1CCN(c2nc3ccccc3nc2C(=O)c2ccc(OC)c(OC)c2)CC1 for me?
Out: 19.7 µM

In: Can you look up the measured TGI of CCOC(=O)c1nc2ccccc2nc1Oc1ccc(C#N)cc1 for me?
Out: > 100 µM

In: Can you look up the measured TGI of N/C(=N\N=C\c1cc(I)cc(I)c1O)NO for me?
Out: 76.2 µM

In: Can you look up the measured TGI of CN(C)C(=O)OC1=CC2CCC(C1)N2C (stereo not given) for me?
Out: > 100 µM

In: Can you look up the measured TGI of CN(C)Cc1ccc(C(C)(C)C)cc1-c1cc(C(C)(C)C)ccc1CN(C)C for me?
Out: > 100 µM
